Test system: Pseudomonas 1 (Pseudomonas baetica)
Assay: relative growth (AUC of 72 h growth curve relative to DMSO control, dAUC) (ratio); higher = more growth (less inhibition), active = hit call of the paper
Details: 20 µM
Parameter relative growth: see the listing below.

Known results for molecules:
| molecule | endpoint-value |
| --- | --- |
| CC[C@H](C)C1O[C@]2(C=C[C@@H]1C)C[C@@H]1C[C@@H](C/C=C(\C)[C@@H](O[C@H]3C[C@H](OC)[C@@H](O[C@H]4C[C@H](OC)[C@H](NC)[C@H](C)O4)[C@H](C)O3)[C@@H](C)/C=C/C=C3\CO[C@@H]4[C@H](O)C(C)=C[C@@H](C(=O)O1)[C@]34O)O2 (stereo partly specified) | 0.957 (inactive) |
| CC1(C)C(C=C(Cl)Cl)C1C(=O)OC(C#N)c1cccc(Oc2ccccc2)c1 (stereo unspecified) | 0.942 (inactive) |
| CC(C)N1C(=O)c2ccccc2NS1(=O)=O | 1.16 (inactive) |
| CCOC(=O)CC(SP(=S)(OC)OC)C(=O)OCC (stereo unspecified) | 1.03 (inactive) |
| CO/C=C(/C(=O)OC)c1ccccc1Oc1cc(Oc2ccccc2C#N)ncn1 | 1.07 (inactive) |

Now for another entry.
Task item: Quick check: relative growth of C[C@@H]1[C@@H](c2ccc(Cl)cc2)SC(=O)N1C(=O)NC1CCCCC1 ?
Reply: 0.933 (inactive)
